Hey, just so you know, these numbers are from patent US11078213B2.

biological target: NPM-ALK-BaF3 (Homo sapiens, UniProt Q9UM73); construct: NPM (nuclear phosphoprotein / nucleophosmin, NPM1, P06748) fusion partner; expressed in transfected cells; host or cells: BaF3; the other entry of the earlier key: NPM1 (P06748, Nucleophosmin); assay: Growth inhibition of BaF3 cells stably transfected with kinase NPM-ALK (MTS); assay type: cell-based; details: compound concentration 3.3 μM, read-out: cell growth inhibition rate, NPM-ALK
Sequence (Q9UM73 with tags, fused parts or gaps): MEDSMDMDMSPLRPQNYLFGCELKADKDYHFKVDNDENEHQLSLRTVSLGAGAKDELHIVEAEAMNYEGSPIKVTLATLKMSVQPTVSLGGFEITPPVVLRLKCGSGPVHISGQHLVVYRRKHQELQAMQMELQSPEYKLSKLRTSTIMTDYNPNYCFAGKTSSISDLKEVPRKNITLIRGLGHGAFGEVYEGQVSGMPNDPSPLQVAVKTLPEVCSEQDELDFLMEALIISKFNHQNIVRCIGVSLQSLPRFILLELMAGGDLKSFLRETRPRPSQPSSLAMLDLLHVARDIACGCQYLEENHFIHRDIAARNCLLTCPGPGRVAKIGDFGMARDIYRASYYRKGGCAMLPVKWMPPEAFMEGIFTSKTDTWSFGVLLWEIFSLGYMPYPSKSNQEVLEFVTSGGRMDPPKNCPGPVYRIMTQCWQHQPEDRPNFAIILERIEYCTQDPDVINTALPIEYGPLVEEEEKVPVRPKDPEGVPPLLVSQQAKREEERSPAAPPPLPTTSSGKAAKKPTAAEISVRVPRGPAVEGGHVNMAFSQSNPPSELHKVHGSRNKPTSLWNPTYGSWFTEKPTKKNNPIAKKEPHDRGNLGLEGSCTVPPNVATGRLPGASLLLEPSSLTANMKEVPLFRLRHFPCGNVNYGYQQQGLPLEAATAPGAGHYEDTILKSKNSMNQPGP
For each entry below, report its inhibition at 3.3 µM value.
One number for each entry, in %.

>>> value_observed("CC(C)S(=O)(=O)c1ccccc1Nc1nc(Nc2ccc(N3CCOCC3)nc2)nc2ccsc12")
77.5
>>> value_observed("CNC(=O)c1ccccc1Nc1nc(Nc2cc(C)c(C3CCN(C)CC3)cc2OC)nc2ccsc12")
90
>>> value_observed("CNC(=O)c1cccc(F)c1Nc1nc(Nc2ccc(N3CCC(N4CCN(C)CC4)CC3)cc2OC)nc2ccsc12")
2.77

# input for lookup
Q) Give the measured inhibition at 3.3 µM for CC(C)S(=O)(=O)c1ccccc1CNc1nc(Nc2ccc(N3CCC(O)CC3)cc2)nc2ccsc12
A) 53.1

----------
target: EML4-ALK-BaF3 (Homo sapiens, UniProt Q9UM73); construct: EML4 (echinoderm microtubule associated protein like 4, Q9HC35) fusion partner; expressed in transfected cells; host or cells: BaF3; the other entry of the earlier key: EML4 (Q9HC35, Echinoderm microtubule-associated protein-like 4); test: Growth inhibition of BaF3 cells stably transfected with kinase EML4-ALK (MTS); type: cell-based; settings: compound concentration 3.3 μM, read-out: cell growth inhibition rate, EML4-ALK
Sequence (Q9UM73 1058-1620 limits assumed): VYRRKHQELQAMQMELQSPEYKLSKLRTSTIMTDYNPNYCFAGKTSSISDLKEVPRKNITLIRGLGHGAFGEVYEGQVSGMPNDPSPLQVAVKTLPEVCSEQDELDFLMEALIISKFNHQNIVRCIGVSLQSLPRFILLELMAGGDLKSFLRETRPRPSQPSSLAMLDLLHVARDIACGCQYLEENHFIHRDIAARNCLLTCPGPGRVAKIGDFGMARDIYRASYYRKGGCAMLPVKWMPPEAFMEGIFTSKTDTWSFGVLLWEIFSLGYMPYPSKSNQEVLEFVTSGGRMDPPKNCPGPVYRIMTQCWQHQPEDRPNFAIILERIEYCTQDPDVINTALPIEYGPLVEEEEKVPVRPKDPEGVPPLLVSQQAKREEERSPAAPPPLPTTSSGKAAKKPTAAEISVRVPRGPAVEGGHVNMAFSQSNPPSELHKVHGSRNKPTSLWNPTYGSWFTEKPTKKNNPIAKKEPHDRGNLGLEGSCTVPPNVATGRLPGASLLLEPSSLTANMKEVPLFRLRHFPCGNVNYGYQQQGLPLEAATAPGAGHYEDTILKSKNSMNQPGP
For each entry below, report its inhibition at 3.3 µM value.
Numbers only, in %.

>>> value_observed("COC(=O)c1ccccc1Nc1nc(Nc2ccc(N3CCC(O)CC3)cc2)nc2ccsc12 [IE-2]")
98.2
>>> value_observed("COc1cc(N2CCC(N3CCCC3)CC2)ccc1Nc1nc(Nc2ccccc2[S+]([O-])C(C)C)c2sccc2n1 (stereo not shown) [IJ-3]")
99.9
>>> value_observed("COc1cc(N2CCC(N3CCN(C)CC3)CC2)ccc1Nc1nc(OCc2ccccc2S(=O)(=O)C(C)C)c2sccc2n1 [IT-3]")
87.8

Working through the 5 molecules below one at a time, give inhibition at 3.3 µM for each.
1. CCP(=O)(CC)c1ccccc1Nc1nc(Nc2ccc(N3CCC(N4CCCC4)CC3)cc2OC)nc2ccsc12 [IS-2]
2. COC(=O)c1ccccc1Sc1nc(Nc2ccc(N3CCC(N4CCN(C)CC4)CC3)cc2OC)nc2ccsc12 [IN-2]
3. COc1cc(N2CCC(N3CCN(C)CC3)CC2)ccc1Nc1nc(Nc2ccccc2P(=O)(C(C)C)C(C)C)c2sccc2n1 [IR-4]
4. CCP(=O)(CC)c1ccccc1Nc1nc(Nc2ccc(N3CCN(C)CC3)cc2OC)nc2ccsc12 [IS-4]
5. COc1cc(N2CCC(N(C)C)CC2)ccc1Nc1nc(Nc2ccccc2C(=O)NC(C)C)c2sccc2n1 [IP-3]

A)
1. 98.2
2. 99.2
3. 98.4
4. 103
5. 99.1

----------
For each entry below, report its inhibition at 3.3 µM value.
molecular target: NPM-ALK-BaF3 (Homo sapiens); construct: NPM (nuclear phosphoprotein / nucleophosmin, NPM1, P06748) fusion partner; expressed in transfected cells; host or cells: BaF3; the other entry of the earlier key: NPM1 (P06748, Nucleophosmin); assay: Growth inhibition of BaF3 cells stably transfected with kinase NPM-ALK (MTS); type: cell-based; settings: compound concentration 3.3 μM, read-out: cell growth inhibition rate, NPM-ALK
Answers are plain numbers, in %.

>>> value_observed("COc1cc(N2CCC(N3CCCC3)CC2)ccc1Nc1nc(Nc2ccccc2S(C)(=O)=O)c2sccc2n1")
92.7
>>> value_observed("CCOc1cc(N2CCN(C)CC2)ccc1Nc1nc(Nc2ccccc2S(=O)(=O)C(C)C)c2sccc2n1")
96.5
>>> value_observed("COC(=O)c1cccc(Nc2nc(Nc3ccc(N4CCN(C)CC4)cc3OC)nc3ccsc23)c1")
44.7

Working through the 2 molecules below one at a time, give inhibition at 3.3 µM for each.
1. COc1cc(C2CCN(C)CC2)c(C)cc1Nc1nc(Nc2ccccc2S(C)(=O)=O)c2sccc2n1
2. CC(C)S(=O)(=O)c1ccccc1Nc1nc(Nc2ccc(N3CCC(O)CC3)nc2)nc2ccsc12

A)
1: 90.9; 2: 96.7

Working through the 7 molecules below one at a time, give inhibition at 3.3 µM for each.
1. COC(=O)c1ccccc1Sc1nc(Nc2ccc(S(N)(=O)=O)cc2)nc2ccsc12
2. COc1cc(N2CCC(N3CCCC3)CC2)ccc1Nc1nc(Nc2cccc(NS(C)(=O)=O)c2)c2sccc2n1
3. CC(C)Oc1cc(N2CCC(O)CC2)ccc1Nc1nc(Nc2ccccc2S(=O)(=O)C(C)C)c2sccc2n1
4. COC(=O)c1ccccc1Nc1nc(Nc2ccc(N3CCC(N4CCN(C)CC4)CC3)cc2OC)nc2ccsc12
5. COc1cc2c(cc1Nc1nc(Nc3ccccc3S(=O)(=O)C(C)C)c3sccc3n1)N(C(=O)CN(C)C)CC2
6. COc1cc2c(cc1Nc1nc(Nc3ccccc3S(C)(=O)=O)c3sccc3n1)N(C(=O)CN(C)C)CC2
7. COc1cc(N2CCC(N3CCN(C)CC3)CC2)ccc1Nc1nc(Nc2ccccc2S(C)(=O)=O)c2sccc2n1

A)
6.73
10.9
66.1
69.5
96.7
87.6
87.6

----------
target: EML4-ALK-BaF3 (Homo sapiens, UniProt Q9UM73); construct: EML4 (echinoderm microtubule associated protein like 4, Q9HC35) fusion partner; expressed in transfected cells; host or cells: BaF3; the other entry of the earlier key: EML4 (Q9HC35, Echinoderm microtubule-associated protein-like 4); test: Growth inhibition of BaF3 cells stably transfected with kinase EML4-ALK (MTS); assay type: cell-based; conditions: compound concentration 3.3 μM, read-out: cell growth inhibition rate, EML4-ALK
property_label: inhibition at 3.3 µM (%)
Numbers only, in %.

Examples with their reported inhibition at 3.3 µM follow.
>>> value_observed("COc1cc2c(cc1Nc1nc(Nc3ccccc3S(=O)(=O)C(C)C)c3sccc3n1)N(C(=O)CN(C)C)CC2")
87.3
>>> value_observed("COc1cc2c(cc1Nc1nc(Nc3ccccc3S(C)(=O)=O)c3sccc3n1)N(C(=O)CN(C)C)CC2")
94.9
>>> value_observed("COc1cc(C2CCN(C)CC2)c(C)cc1Nc1nc(Nc2ccccc2NS(C)(=O)=O)c2sccc2n1")
98

Working through the 3 molecules below one at a time, give inhibition at 3.3 µM for each.
1. CC(C)P(=O)(c1ccccc1Nc1nc(Nc2ccc(N3CCN(C)CC3)cc2)nc2ccsc12)C(C)C
2. COc1cc(N2CCN(C)CC2)ccc1Nc1nc(Nc2ccccc2C(=O)NC(C)C)c2sccc2n1
3. COc1cc(N2CCN(C)CC2)ccc1Nc1nc(Nc2ccccc2P(=O)(C(C)C)C(C)C)c2sccc2n1

A)
98.3
97.3
99.2

Working through the 7 molecules below one at a time, give inhibition at 3.3 µM for each.
1. CNC(=O)c1ccccc1Nc1nc(Nc2ccc(N3CCC(N4CCCC4)CC3)cc2OC)nc2ccsc12
2. CCP(=O)(CC)c1ccccc1Nc1nc(Nc2ccc(N3CCC(N4CCN(C)CC4)CC3)cc2OC)nc2ccsc12
3. COC(=O)c1cccc(Nc2nc(Nc3ccc(N4CCC(N5CCCC5)CC4)cc3OC)nc3ccsc23)c1
4. COc1cc(N2CCC(N3CCN(C)CC3)CC2)ccc1Nc1nc(Nc2ccccc2[S+]([O-])C(C)C)c2sccc2n1 (stereo not shown)
5. CNC(=O)c1cccc(F)c1Nc1nc(Nc2ccc(N3CCN(C)CC3)cc2OC)nc2ccsc12
6. COC(=O)c1ccccc1Sc1nc(Nc2ccc(N3CCN(C)CC3)cc2OC)nc2ccsc12
7. COc1cc(N2CCC(N3CCCC3)CC2)ccc1Nc1nc(Nc2ccccc2NS(C)(=O)=O)c2sccc2n1

A)
[98.5, 101, 98.5, 99.3, 87.1, 98.8, 97.8]

----------
molecular target: EML4-ALK-BaF3 (Homo sapiens, UniProt Q9UM73); construct: EML4 (echinoderm microtubule associated protein like 4, Q9HC35) fusion partner; expressed in transfected cells; host or cells: BaF3; the other entry of the earlier key: EML4 (Q9HC35, Echinoderm microtubule-associated protein-like 4); assay: Growth inhibition of BaF3 cells stably transfected with kinase EML4-ALK (MTS); format: cell-based; conditions: compound concentration 3.3 μM, read-out: cell growth inhibition rate, EML4-ALK
property_label: inhibition at 3.3 µM (%)
Numbers only, in %.

Examples with their reported inhibition at 3.3 µM follow.
>>> value_observed("CCP(=O)(CC)c1ccccc1Nc1nc(Nc2ccc(N3CCN(C)CC3)cc2)nc2ccsc12")
103
>>> value_observed("COc1cc2c(cc1Nc1nc(Nc3ccccc3S(=O)(=O)C(C)C)c3sccc3n1)N(C(=O)CN1CCCC1)CC2")
98.3
>>> value_observed("CCP(=O)(CC)c1ccccc1Nc1nc(Nc2cc3c(cc2OC)CCN3C(=O)CN(C)C)nc2ccsc12")
98.7
>>> value_observed("COc1cc(N2CCC(N3CCN(C)CC3)CC2)ccc1Nc1nc(Nc2ccccc2S(C)(=O)=O)c2sccc2n1")
98.9
>>> value_observed("COc1cc2c(cc1Nc1nc(Nc3ccccc3P(=O)(C(C)C)C(C)C)c3sccc3n1)N(C(=O)CN(C)C)CC2")
97.5
>>> value_observed("COc1cc(N2CCC(N3CCCC3)CC2)ccc1Nc1nc(Nc2ccccc2S(C)(=O)=O)c2sccc2n1")
99.8

Q) Give the measured inhibition at 3.3 µM for COC(=O)c1ccccc1Nc1nc(Nc2ccc(N3CCC(N4CCN(C)CC4)CC3)cc2)nc2ccsc12
A) 96.7
